molecular target: ZNF721 full-length (Homo sapiens, UniProt Q8TF20-2 1-923); experiment: HT-SELEX; 20 mM HEPES pH 7, 140 mM KCl, 5 mM NaCl, 1 mM K2HPO4, 2 mM MgSO4, 100 uM EGTA, ZnSO4, 0.1% Tween20; room temperature, 1 h; high values mean tight binding; settings: protein: ivt; tags: eGFP (N-terminal); dsDNA, one strand shown
Sequence (Q8TF20 other isoform, or with tags, fused parts or gaps): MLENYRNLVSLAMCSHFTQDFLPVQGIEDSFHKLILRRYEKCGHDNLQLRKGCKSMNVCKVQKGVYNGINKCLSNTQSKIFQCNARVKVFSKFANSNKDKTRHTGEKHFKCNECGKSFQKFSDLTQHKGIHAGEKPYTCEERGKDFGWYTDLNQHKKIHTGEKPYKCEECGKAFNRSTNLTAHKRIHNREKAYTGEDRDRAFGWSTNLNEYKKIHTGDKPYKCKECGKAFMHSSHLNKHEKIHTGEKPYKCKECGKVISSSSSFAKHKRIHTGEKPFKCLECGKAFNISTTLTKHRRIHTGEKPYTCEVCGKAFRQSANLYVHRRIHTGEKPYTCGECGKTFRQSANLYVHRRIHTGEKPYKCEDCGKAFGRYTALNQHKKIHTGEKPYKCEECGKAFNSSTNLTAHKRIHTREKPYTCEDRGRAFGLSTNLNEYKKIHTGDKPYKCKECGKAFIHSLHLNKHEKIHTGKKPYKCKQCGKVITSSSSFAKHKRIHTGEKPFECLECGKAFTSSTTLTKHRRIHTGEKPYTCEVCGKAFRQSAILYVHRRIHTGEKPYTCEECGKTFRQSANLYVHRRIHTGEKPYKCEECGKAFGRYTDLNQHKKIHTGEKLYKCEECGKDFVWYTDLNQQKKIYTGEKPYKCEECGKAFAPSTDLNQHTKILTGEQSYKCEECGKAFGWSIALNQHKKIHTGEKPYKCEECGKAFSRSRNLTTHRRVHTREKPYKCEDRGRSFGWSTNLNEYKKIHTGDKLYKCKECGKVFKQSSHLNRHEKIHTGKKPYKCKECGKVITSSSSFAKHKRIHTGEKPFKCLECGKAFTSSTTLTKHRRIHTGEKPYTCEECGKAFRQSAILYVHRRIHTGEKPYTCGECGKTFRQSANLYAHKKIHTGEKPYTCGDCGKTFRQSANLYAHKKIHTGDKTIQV
Classification field: enter YES for binding signal values not below 0.2 relative 10-mer count, NO for values below it.

>>> print(df.to_string())
    biopolymer_sequence                                 tested_on  discrete_label
 0           CTCCCCCCCA  ZNF721 full-length (Homo sapiens, UniProt Q8TF20-2 1-923)              NO
 1           CCCCCGCTCC  ZNF721 full-length (Homo sapiens, UniProt Q8TF20-2 1-923)              NO
 2           AAGCAGTACC  ZNF721 full-length (Homo sapiens, UniProt Q8TF20-2 1-923)              NO
 3           AGCAGTACCA  ZNF721 full-length (Homo sapiens, UniProt Q8TF20-2 1-923)              NO
 4           GCCCCCACCC  ZNF721 full-length (Homo sapiens, UniProt Q8TF20-2 1-923)              NO
 5           ACCCACCCCC  ZNF721 full-length (Homo sapiens, UniProt Q8TF20-2 1-923)             YES
 6           CCACCACCCA  ZNF721 full-length (Homo sapiens, UniProt Q8TF20-2 1-923)             YES
 7           AACAGCATGC  ZNF721 full-length (Homo sapiens, UniProt Q8TF20-2 1-923)              NO
 8           CCCCTCGCCC  ZNF721 full-length (Homo sapiens, UniProt Q8TF20-2 1-923)              NO
 9           CCCACACCCA  ZNF721 full-length (Homo sapiens, UniProt Q8TF20-2 1-923)              NO
10           CCGCACCCCC  ZNF721 full-length (Homo sapiens, UniProt Q8TF20-2 1-923)              NO
11           CCCCCTCACC  ZNF721 full-length (Homo sapiens, UniProt Q8TF20-2 1-923)              NO
12           CCCACGACCC  ZNF721 full-length (Homo sapiens, UniProt Q8TF20-2 1-923)              NO
13           CACGCCCCAC  ZNF721 full-length (Homo sapiens, UniProt Q8TF20-2 1-923)              NO
14           GGGGTGGGAC  ZNF721 full-length (Homo sapiens, UniProt Q8TF20-2 1-923)              NO
15           GCCCACCCCC  ZNF721 full-length (Homo sapiens, UniProt Q8TF20-2 1-923)             YES
16           CCACCCACAC  ZNF721 full-length (Homo sapiens, UniProt Q8TF20-2 1-923)              NO
17           AGGGAGGGGG  ZNF721 full-length (Homo sapiens, UniProt Q8TF20-2 1-923)              NO

The origin of these recorded values is paper PMC13541613.
